# assayed-target: human sodium glucose cotransporter 2 (Homo sapiens, UniProt P31639)
# Construct: expressed in transfected cells; host or cells: CHO-K1 (ATCC CCL-61) or HEK293 (ATCC CRL-1573), stably transfected with pZeoSV expression vector
# Sequence (P31639 whole entry): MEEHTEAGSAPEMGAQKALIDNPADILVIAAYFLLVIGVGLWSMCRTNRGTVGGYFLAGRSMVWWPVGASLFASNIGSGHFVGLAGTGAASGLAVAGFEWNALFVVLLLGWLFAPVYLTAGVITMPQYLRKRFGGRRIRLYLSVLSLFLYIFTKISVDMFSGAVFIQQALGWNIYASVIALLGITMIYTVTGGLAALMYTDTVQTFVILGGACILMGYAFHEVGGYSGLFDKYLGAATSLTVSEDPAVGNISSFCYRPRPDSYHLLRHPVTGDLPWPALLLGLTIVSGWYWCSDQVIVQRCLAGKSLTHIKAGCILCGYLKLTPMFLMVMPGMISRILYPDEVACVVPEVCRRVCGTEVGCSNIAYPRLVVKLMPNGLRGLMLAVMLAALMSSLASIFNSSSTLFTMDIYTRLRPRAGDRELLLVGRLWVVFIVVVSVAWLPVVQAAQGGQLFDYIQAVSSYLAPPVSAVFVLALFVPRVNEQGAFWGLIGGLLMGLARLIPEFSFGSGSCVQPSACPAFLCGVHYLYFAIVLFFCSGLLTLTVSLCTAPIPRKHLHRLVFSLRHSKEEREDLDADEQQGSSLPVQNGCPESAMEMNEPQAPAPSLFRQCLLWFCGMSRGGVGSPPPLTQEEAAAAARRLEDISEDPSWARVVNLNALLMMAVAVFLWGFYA
# test-summary: SGLT-2 assay: 14C-AMG uptake in CHO-hSGLT2 or HEK293-hSGLT2 cells
# Assay type: cell-based
# assay-conditions: n = 1-4, hSGLT2-transfected cells, read-out: SGLT2 IC50 nM (n = 1-4)
metric-name: IC50 (nM)
Answers are plain numbers, in nM.

List the reported IC50 of each molecule below.
1. CCOc1ccc(Cc2cc([C@@H]3O[C@H](CSc4ccccc4CO)[C@@H](O)[C@H](O)[C@H]3O)ccc2Cl)cc1 [Example 23]
2. CCOc1ccc(Cc2cc([C@@H]3O[C@H](CSc4ncccn4)[C@@H](O)[C@H](O)[C@H]3O)ccc2Cl)cc1 [Example 8]
3. CCOc1ccc(Cc2cc([C@@H]3O[C@H](CSc4nc5ccccc5[nH]4)[C@@H](O)[C@H](O)[C@H]3O)ccc2Cl)cc1 [Example 15]
4. CCOc1ccc(Cc2cc([C@@H]3O[C@H](CSc4cc(NC(C)=O)ccc4F)[C@@H](O)[C@H](O)[C@H]3O)ccc2Cl)cc1 [Example 25]

1. 36
2. 85
3. 65
4. 7

Just for reference, patent US20110230403A1 is where these values come from.
